# system.name: catalytic domain (JH1, amino acids 826-1132) of human JAK2 (Homo sapiens, UniProt O60674)
# Construct: catalytic domain (JH1, amino acids 826-1132) of human JAK2; FLAG (N); biotin (biotinylated); purchased Carna Biosciences 08-445-20N; host or cells: baculovirus expression system
# Sequence (O60674 826-1132): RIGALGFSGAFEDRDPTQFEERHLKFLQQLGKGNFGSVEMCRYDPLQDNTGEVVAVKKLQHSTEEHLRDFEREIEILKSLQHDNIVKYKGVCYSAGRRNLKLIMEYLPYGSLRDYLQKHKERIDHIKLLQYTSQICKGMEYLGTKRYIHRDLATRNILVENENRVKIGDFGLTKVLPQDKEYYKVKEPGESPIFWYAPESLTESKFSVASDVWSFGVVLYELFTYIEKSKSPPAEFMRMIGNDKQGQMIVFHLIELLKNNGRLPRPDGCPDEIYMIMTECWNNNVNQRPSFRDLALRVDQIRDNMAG
# assay.overview: JAK2 LanthaScreen JH1 binding assay
# experimental.parameters: Table A; read-out: JH1 Bind IC50
pIC50: −log10 of the molar value.
Items are presented alongside their recorded pIC50.

smiles.structure: [2H]C([2H])([2H])Oc1ccc(-c2c(-c3cn(C([2H])([2H])[2H])nc3F)[nH]c3ncc4c(c23)n([C@@H]2CC[C@@H](NC(=O)OC)C2)c(=O)n4C([2H])([2H])[2H])cc1
measured.parameter: pIC50
data.value: < 6.00

Let's switch to this compound now.
Request the reported pIC50 associated with [2H]C([2H])([2H])n1ncc2cc(-c3c(-c4cn(C([2H])(C([2H])([2H])[2H])C([2H])([2H])[2H])nc4F)[nH]c4ncc5c(c34)n([C@@H]3CC[C@@H](NC(=O)OC)C3)c(=O)n5C([2H])([2H])[2H])ccc21
< 6.00
